tested-system: Cholesteryl ester transfer protein (Homo sapiens)
Sequence (whole entry): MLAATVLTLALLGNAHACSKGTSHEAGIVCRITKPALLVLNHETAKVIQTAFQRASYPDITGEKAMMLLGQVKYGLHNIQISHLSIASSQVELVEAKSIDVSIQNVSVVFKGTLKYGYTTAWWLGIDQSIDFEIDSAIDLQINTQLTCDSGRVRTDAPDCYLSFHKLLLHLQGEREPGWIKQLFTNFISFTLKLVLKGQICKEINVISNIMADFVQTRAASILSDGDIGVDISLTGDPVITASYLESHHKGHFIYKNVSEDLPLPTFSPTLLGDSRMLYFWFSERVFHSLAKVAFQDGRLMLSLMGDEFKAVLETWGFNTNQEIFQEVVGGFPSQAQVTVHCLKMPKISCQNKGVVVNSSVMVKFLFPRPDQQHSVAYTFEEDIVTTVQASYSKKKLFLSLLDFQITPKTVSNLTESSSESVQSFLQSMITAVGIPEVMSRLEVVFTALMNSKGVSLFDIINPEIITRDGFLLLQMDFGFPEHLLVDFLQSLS
test-method-notes: Inhibition of CETP (unknown origin) at 500 uM incubated for 0.5 hrs by double illuminometer/fluorescence counter method relative to control
recorded-endpoint: inhibition (%)

>>> observed_value("O=C(Nc1nc(-c2ccc(O)cc2)c(Cc2ccccc2)s1)c1ccc(O)cc1O")
88

(a) O=C(Nc1nc(-c2ccc(O)cc2)c(Cc2ccccc2)s1)c1ccc(Cl)cc1
(b) O=C(Nc1nc(-c2ccc(O)cc2)c(Cc2ccc(F)cc2)s1)c1ccc(O)c(O)c1
(c) O=C(Nc1nc(-c2ccc(O)cc2)c(CC2CCCCC2)s1)c1cc(O)c(O)c(O)c1
(d) COc1ccc(-c2nc(N)sc2Cc2ccc(F)cc2)cc1
(e) O=C(Nc1nc(-c2ccc(F)cc2)c(Cc2ccc([N+](=O)[O-])cc2)s1)c1ccc(O)c(O)c1
Incoming: Rank items: key inhibition, increasing. Kindly provide the labels arranged according to the requested ordering.
Outgoing: e, b, c, d, a

----------
tested-system: UniProt P55058
test-method-notes: Inhibition of PLTP in plasma (unknown origin) assessed as reduction in phospholipid transfer from phospholipid liposome to HDL at 250 uM measured after 1 hr relative to control
Format: cell-free
recorded-endpoint: inhibition (%)

Example results:
>>> observed_value("O=C(Nc1nc(-c2ccc(O)cc2)c(CC2CCCCC2)s1)c1cc(O)c(O)c(O)c1")
100
>>> observed_value("O=C(Nc1nc(-c2ccc(O)cc2)c(Cc2ccc([N+](=O)[O-])cc2)s1)c1ccc(O)c(O)c1")
67.6
>>> observed_value("O=C(Nc1nc(-c2ccc(O)cc2)c(Cc2ccccc2)s1)c1ccc(O)c(O)c1")
79.8
>>> observed_value("CCCCc1sc(NC(=O)c2cc(O)c(O)c(O)c2)nc1-c1ccc(O)cc1")
100
>>> observed_value("O=C(Nc1nc(-c2ccc(O)cc2)c(CCc2ccccc2)s1)c1ccc(O)c(O)c1")
97
>>> observed_value("O=C(Nc1nc(-c2ccccc2)c(Cc2ccc([N+](=O)[O-])cc2)s1)c1ccc(O)c(O)c1")
100
>>> observed_value("CCCCc1sc(N)nc1-c1ccc(OC)cc1")
15.3

(a) COc1ccc(-c2nc(N)sc2Cc2ccc(F)cc2)cc1
(b) CCCCc1sc(NC(=O)c2ccc(O)c(O)c2)nc1-c1ccc(O)cc1
(c) COc1ccc(-c2nc(N)sc2CCc2ccccc2)cc1
Incoming: Rank items: key inhibition, increasing. Kindly provide the labels arranged according to the requested ordering.
Outgoing: a, c, b
(a: 11.5%, c: 24%, b: 93.4%)

----------
tested-system: UniProt P55058
test-method-notes: Inhibition of PLTP in plasma (unknown origin) assessed as reduction in phospholipid transfer from phospholipid liposome to HDL at 150 uM measured after 1 hr relative to control
Type: cell-free
recorded-endpoint: inhibition (%)

Example results:
>>> observed_value("COc1ccc(-c2nc(N)sc2CC2CCCCC2)cc1")
0
>>> observed_value("O=C(Nc1nc(-c2ccc(O)cc2)c(Cc2ccccc2)s1)c1cc(O)c(O)c(O)c1")
89.4

(A) O=C(CCc1ccc(O)c(O)c1)Nc1nc(-c2ccc(O)cc2)c(Cc2ccccc2)s1
(B) O=C(Nc1nc(-c2ccc(O)cc2)c(Cc2ccccc2)s1)c1ccc(Cl)cc1
(C) O=C(Nc1nc(-c2ccc(O)cc2)c(Cc2ccccc2)s1)c1ccc(O)cc1O
Incoming: Rank items: key inhibition, increasing. Kindly provide the labels arranged according to the requested ordering.
Outgoing: B, C, A
(B: 0%, C: 11.5%, A: 75.7%)

(A) COc1ccc(C(=O)Nc2nc(-c3ccc(O)cc3)c(Cc3ccccc3)s2)cc1
(B) O=C(Nc1nc(-c2ccc(O)cc2)c(CC2CCCCC2)s1)c1ccc(O)c(O)c1
Incoming: Pick the one with the larger inhibition: A vs B Respond using the label that marks the chosen record.
Outgoing: B

----------
tested-system: Phospholipid transfer protein (Homo sapiens) (UniProt P55058)
Sequence (P55058 whole entry): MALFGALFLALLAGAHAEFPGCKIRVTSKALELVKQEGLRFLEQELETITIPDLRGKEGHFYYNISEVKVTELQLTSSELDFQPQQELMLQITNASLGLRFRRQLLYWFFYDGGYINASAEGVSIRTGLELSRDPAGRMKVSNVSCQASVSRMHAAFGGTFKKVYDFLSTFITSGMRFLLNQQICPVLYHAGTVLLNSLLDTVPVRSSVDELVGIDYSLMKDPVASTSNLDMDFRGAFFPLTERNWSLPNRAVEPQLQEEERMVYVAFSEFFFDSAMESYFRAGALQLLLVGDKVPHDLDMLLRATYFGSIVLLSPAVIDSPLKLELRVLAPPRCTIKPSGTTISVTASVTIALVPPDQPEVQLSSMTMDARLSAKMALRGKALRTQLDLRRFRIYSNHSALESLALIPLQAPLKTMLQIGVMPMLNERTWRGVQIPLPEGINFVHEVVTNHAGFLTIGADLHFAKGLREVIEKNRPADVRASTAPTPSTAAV
test-method-notes: Inhibition of PLTP in plasma (unknown origin) assessed as reduction in phospholipid transfer from phospholipid liposome to HDL at 250 uM measured after 1 hr relative to control
Type: cell-free
recorded-endpoint: inhibition (%)

(1) O=C(Nc1nc(-c2ccc(O)cc2)c(Cc2ccc(F)cc2)s1)c1ccc(O)c(O)c1
(2) Cc1sc(NC(=O)c2cc(O)c(O)c(O)c2)nc1-c1ccc(O)cc1
Incoming: Pick the one with the larger inhibition: 1 vs 2 Respond using the label that marks the chosen record.
Outgoing: 1

----------
tested-system: UniProt:P11597
test-method-notes: Inhibition of CETP (unknown origin) at 500 uM incubated for 0.5 hrs by double illuminometer/fluorescence counter method relative to control
recorded-endpoint: inhibition (%)

Example results:
>>> observed_value("CCCCc1sc(N)nc1-c1ccc(OC)cc1")
65.4
>>> observed_value("COc1ccc(-c2nc(N3CCOCC3)sc2Cc2ccccc2)cc1")
91.6
>>> observed_value("COc1ccc(-c2nc(N)sc2CC2CCCCC2)cc1")
79.8
>>> observed_value("O=C(Nc1nc(-c2ccc(O)cc2)c(CCc2ccccc2)s1)c1ccc(O)c(O)c1")
0

(I) COc1ccc(C(=O)Nc2nc(-c3ccc(O)cc3)c(Cc3ccccc3)s2)cc1
(II) O=C(CCc1ccc(O)c(O)c1)Nc1nc(-c2ccc(O)cc2)c(Cc2ccccc2)s1
(III) CCCCc1sc(NC(=O)c2ccc(O)c(O)c2)nc1-c1ccc(O)cc1
Incoming: Hey, quick one: sort these by inhibition, largest value first please. Kindly provide the labels arranged according to the requested ordering.
Outgoing: I, II, III

(A) COc1ccc(-c2nc(N)sc2CCc2ccccc2)cc1
(B) CCCCc1sc(NC(=O)c2cc(O)c(O)c(O)c2)nc1-c1ccc(O)cc1
Incoming: Pick the one with the larger inhibition: A vs B Respond using the label that marks the chosen record.
Outgoing: A

(1) Cc1sc(NC(=O)c2cc(O)c(O)c(O)c2)nc1-c1ccc(O)cc1
(2) O=C(Nc1nc(-c2ccc(O)cc2)c(Cc2ccccc2)s1)c1ccc(O)c(O)c1
Incoming: Pick the one with the larger inhibition: 1 vs 2 Respond using the label that marks the chosen record.
Outgoing: 1

----------
tested-system: UniProt P11597
test-method-notes: Inhibition of CETP (unknown origin) at 500 uM incubated for 0.5 hrs by double illuminometer/fluorescence counter method relative to control
recorded-endpoint: inhibition (%)

Example results:
>>> observed_value("O=C(Nc1nc(-c2ccccc2)c(Cc2ccc([N+](=O)[O-])cc2)s1)c1ccc(O)c(O)c1")
0
>>> observed_value("O=C(Nc1nc(-c2ccc(O)cc2)c(CC2CCCCC2)s1)c1ccc(O)c(O)c1")
6

(A) COc1ccc(-c2nc(N3CCNCC3)sc2Cc2ccccc2)cc1
(B) O=C(Nc1nc(-c2ccc(O)cc2)c(Cc2ccc([N+](=O)[O-])cc2)s1)c1ccc(O)c(O)c1
Incoming: Pick the one with the larger inhibition: A vs B Respond using the label that marks the chosen record.
Outgoing: A
(A: 74.5%, B: 30.4%)
